Tested on: MCF7 breast
assay-procedure: NCI tumour cell line growth inhibition, 48 h; in the data active = GI50 below about 0.43 µM; inactive = the rest
The reply should name one outcome from Yes for active, No for inactive

Query: What did the test return for COc1cc(/C=C/C(=O)c2c(-c3ccc(F)cc3)nc3sc(C)nn23)cc(OC)c1OC ?
Response: No

Query: Here is the next compound: Cc1ccc(OCCOCCOCCOCCOCCOc2ccc(C)n(O)c2=S)c(=S)n1O
Response: Yes

Query: Please answer likewise for CN(C)CCNC(=O)c1ccc2oc3cc4ccccc4c(=O)n3c2c1
Response: No

Query: Same again, this time with CC/C=C\C[C@H](O)C/C=C1/C(=O)C=C[C@@H]1C/C=C\CCCCO
Response: No

Query: Repeat with COC(=O)c1oc2c(C(=O)/C=C/c3ccc(OC)cc3)c(OCCN3CCOCC3)ccc2c1C
Response: No

Query: Would you mind doing C=C1CC2C3C=C(C)C4=CC(=O)CC[C@]4(C)C3CC[C@]2(C)[C@@]1(OC(C)=O)C(C)=O (stereo not given in full) as well?
Response: No

Query: // next record COc1ccc(-c2[nH]nc(N)c2-c2cc(OC)c(OC)c(OC)c2)cc1
Response: Yes

Query: Field entry: CCOC(=O)c1cc(NS(=O)(=O)c2ccc(C)cc2)cc(C(=O)OCC)c1
Response: No

Query: Likewise for N#Cc1c(N/N=C\c2ccc(Cl)cc2)nc(N)nc1N1CCOCC1 ?
Response: No

Query: How about Cn1c(-c2c(N)n(Cc3ccc(F)cc3)c3nc(C#N)c(C#N)nc23)nc2ccccc21 ?
Response: No

Query: Try COc1ccc2nc3cccc([N+](=O)[O-])c3c(NC(C)CN(C)C)c2c1 (stereo not given) next.
Response: No

Query: Next entry: Cc1ccccc1C(C(=O)NC1CCCCC1)N(C(=O)CNc1ncccc1F)c1cccc(F)c1 (stereo not given)
Response: No

Query: Same question for CCNCCNc1cc(-c2ccc(C(F)(F)F)cc2)c(C#N)c2nc3cc(Cl)c(Cl)cc3n12 please.
Response: Yes

Query: Request: COc1ccc(NC(=O)c2ccc(NC3=C(Cl)C(=O)N(Cc4ccccc4)C3=O)cc2)c(OC)c1
Response: No

Query: Thanks! And Cc1ccsc1-c1ccc2c(c1)COC2(CCCN(C)C)c1ccc(F)cc1 (stereo not given) ?
Response: No

Query: Follow-up item: COc1ccc2c(c1)C(c1cc(OC)c3c(c1)OCO3)C1=C(COC1=O)N2 (stereo not given)
Response: Yes

Query: What do you have for O=C1c2cc(F)ccc2-c2c1c1ccc([N+](=O)[O-])cc1c(=O)n2CCCBr ?
Response: No

Query: Then C/C=C(\C)C(=O)O[C@H]1C=CC(=O)O[C@H]1COC(=O)[C@H](C)O ?
Response: No

Query: And for CNC(=O)c1cccc(C#Cc2cncnc2Nc2ccc(OCc3cccc(F)c3)c(Cl)c2)c1 ?
Response: No

Query: Also need Cc1cccc(Cl)c1NC(=O)c1cnc(Nc2cc(N3CCOCC3)cc(S(C)(=O)=O)c2)s1 , thanks.
Response: No

###

Kindly supply the reported TGI values for the records listed here.
Tested on: RPMI-8226 leukemia
assay-procedure: NCI tumour cell line growth inhibition, 48 h
// return numeric value only (unit: µM, not printed)

Query: Recorded TGI of O=C(CSSCC(=O)Nc1ccc(Br)cc1)Nc1ccc(Br)cc1 , please.
Response: 64.3

Query: Next up: O=C([CH-]C(=O)c1ccccc1)c1ccccc1.O=C([CH-]C(=O)c1ccccc1)c1ccccc1.O=C([CH-]C(=O)c1ccccc1)c1ccccc1.[Cl-].[Hf+4]
Response: 82.1

Query: Ok, now O=C(CSSCC(=O)OCCS(=O)(=O)Nc1ccc(Br)cc1)OCCS(=O)(=O)Nc1ccc(Br)cc1
Response: 83.7

Query: Same for CC/C=C\C[C@H](O)C/C=C1/C(=O)C=C[C@@H]1C/C=C\CCCCO
Response: 10.4

Query: Entry to check: CN1CCN(CCCN2c3ccccc3Sc3ccc(Cl)cc32)CC1
Response: 16

Query: Same question for C=C1c2nc3ccccc3n2C=C(c2ccc(Cl)cc2)N1c1ccc(OCCN2CCCCC2)cc1 please.
Response: 45
